- run-description: Half life in human liver microsomes by LC/MS analysis
- Format: ADME
property-label: half-life (h)

{"columns": ["compound", "unit-abbreviation", "observed-result"],
 "data": [
  ["CC1CN(CC2CCN(Cc3ccccc3)CC2)C(=O)N(c2cccc(C(=N)N)c2)C1 (stereo unspecified)", "h", 2.7]
]}

---

- tested-on: Serine protease hepsin (Homo sapiens)
- Sequence (P05981 1-162 limits assumed): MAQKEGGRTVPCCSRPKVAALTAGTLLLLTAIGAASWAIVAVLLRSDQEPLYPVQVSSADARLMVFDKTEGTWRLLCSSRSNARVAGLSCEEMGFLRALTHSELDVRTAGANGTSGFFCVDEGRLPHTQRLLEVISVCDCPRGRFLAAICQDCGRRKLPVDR
- Sequence (P05981 163-417 limits assumed): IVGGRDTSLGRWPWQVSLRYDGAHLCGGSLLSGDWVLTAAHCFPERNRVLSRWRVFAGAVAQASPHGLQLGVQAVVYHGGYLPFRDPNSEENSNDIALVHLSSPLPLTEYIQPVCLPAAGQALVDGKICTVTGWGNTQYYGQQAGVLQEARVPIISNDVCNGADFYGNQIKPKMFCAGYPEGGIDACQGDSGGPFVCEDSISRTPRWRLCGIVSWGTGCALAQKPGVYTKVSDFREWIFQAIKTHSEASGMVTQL
- run-description: Inhibition of human recombinant hepsin using H2N(EEdansyl)GKQLRVVNGG (KDabcyl)-NH2 as substrate by fluorometric analysis
pKi: −log10 of the molar value.
Below is a list of entries, each paired with its recorded pKi value.

{"columns": ["molecule", "pKi"],
 "data": [
  ["N=C(N)c1cccc(N2CC(CO)CN(CC3CCN(Cc4ccccc4)CC3)C2=O)c1 (stereo not given)", 6.16],
  ["N=C(N)c1cccc(N2CC(OCc3ccccc3)CN(CC3CCN(Cc4ccccc4)CC3)C2=O)c1 (stereo not given)", 6.12],
  ["N=C(N)c1cccc(N2CC(CNC(=O)c3ccccc3)CN(CC3CCN(Cc4ccccc4)CC3)C2=O)c1 (stereo not given)", 5.96],
  ["CS(=O)(=O)NC1CN(CC2CCN(Cc3ccccc3)CC2)C(=O)N(c2cccc(C(=N)N)c2)C1 (stereo not given)", 6.14],
  ["CC1CN(c2cccc(C(=N)N)c2)C(=O)N(C2CCN(Cc3ccccc3)CC2)C1 (stereo not given)", 5.47]
]}

---

- tested-on: UniProtKB P05981
- run-description: Inhibition of human recombinant hepsin using H2N(EEdansyl)GKQLRVVNGG (KDabcyl)-NH2 as substrate by fluorometric analysis
pKi: −log10 of the molar value.
Parameter pKi: see the listing below.

{"columns": ["compound", "pKi"],
 "data": [
  ["N=C(N)c1cccc(N2CC(COCc3ccccc3)CN(CC3CCN(Cc4ccccc4)CC3)C2=O)c1 (stereo not given)", 6.25],
  ["CC1CN(CC2CCN(Cc3ccccc3)CC2)C(=O)N(c2cccc(C(=N)N)c2)C1 (stereo not given)", 6.27],
  ["CC1CN(Cc2ccc(C(=N)N)cc2)C(=O)N(C2CCN(Cc3ccccc3)CC2)C1 (stereo not given)", 4.68],
  ["N=C(N)c1cccc(N2CC(NC(=O)Cc3ccccc3)CN(CC3CCN(Cc4ccccc4)CC3)C2=O)c1 (stereo not given)", 5.95],
  ["N=C(N)c1cccc(N2CC(O)CN(CC3CCN(Cc4ccccc4)CC3)C2=O)c1 (stereo not given)", 6.68]
]}

---

- run-description: Half life in mouse at 1 mg/kg, iv
- Type: ADME, organism-based
- particulars: in vivo

{"columns": ["compound", "half-life / h"],
 "data": [
  ["CC1CN(CC2CCN(Cc3ccccc3)CC2)C(=O)N(c2cccc(C(=N)N)c2)C1 (stereo unspecified)", 5.8]
]}

---

- tested-on: Coagulation factor X (Homo sapiens, UniProt P00742)
- Sequence (P00742 41-179 limits assumed): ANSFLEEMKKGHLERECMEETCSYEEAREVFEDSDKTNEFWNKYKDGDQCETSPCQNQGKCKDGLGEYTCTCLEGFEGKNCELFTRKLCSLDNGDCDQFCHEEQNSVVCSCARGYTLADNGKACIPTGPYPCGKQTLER
- Sequence (P00742 235-488 limits assumed): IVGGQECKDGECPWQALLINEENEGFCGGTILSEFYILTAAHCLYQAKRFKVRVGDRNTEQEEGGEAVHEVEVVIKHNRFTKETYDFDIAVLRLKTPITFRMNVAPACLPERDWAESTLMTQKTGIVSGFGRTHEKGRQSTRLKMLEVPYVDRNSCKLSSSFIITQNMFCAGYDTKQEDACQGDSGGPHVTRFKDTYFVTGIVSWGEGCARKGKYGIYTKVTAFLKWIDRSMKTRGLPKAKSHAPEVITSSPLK
- run-description: Inhibition of human recombinant factor 10a using H2N(EEdansyl)GKQLRVVNGG (KDabcyl)-NH2 as substrate by fluorometric analysis
pKi: −log10 of the molar value.
Decision: pKi compared against 6; not below it gives True, below it gives False.

{"columns": ["molecule", "answer-label"],
 "data": [
  ["N=C(N)c1cccc(N2CC(CNC(=O)Cc3ccccc3)CN(CC3CCN(Cc4ccccc4)CC3)C2=O)c1 (centres undefined)", "False"],
  ["N=C(N)c1cccc(N2CC(COCc3ccccc3)CN(CC3CCN(Cc4ccccc4)CC3)C2=O)c1 (centres undefined)", "True"],
  ["N=C(N)c1cccc(N2CC(CO)CN(CC3CCN(Cc4ccccc4)CC3)C2=O)c1 (centres undefined)", "True"],
  ["COCC1CN(CC2CCN(Cc3ccccc3)CC2)C(=O)N(c2cccc(C(=N)N)c2)C1 (centres undefined)", "True"],
  ["CC1CN(c2cccc(C(=N)N)c2)C(=O)N(C2CCN(Cc3ccccc3)CC2)C1 (centres undefined)", "True"],
  ["N=C(N)c1cccc(NC(=O)NC2CCN(Cc3ccccc3)CC2)c1", "False"],
  ["CC1CN(Cc2ccc(C(=N)N)cc2)C(=O)N(C2CCN(Cc3ccccc3)CC2)C1 (centres undefined)", "False"],
  ["CS(=O)(=O)NC1CN(CC2CCN(Cc3ccccc3)CC2)C(=O)N(c2cccc(C(=N)N)c2)C1 (centres undefined)", "True"],
  ["CC1CN(CCC2CCN(Cc3ccccc3)CC2)C(=O)N(c2cccc(C(=N)N)c2)C1 (centres undefined)", "True"],
  ["CC1CN(Cc2cccc(C(=N)N)c2)C(=O)N(C2CCN(Cc3ccccc3)CC2)C1 (centres undefined)", "False"],
  ["CC1CN(CC2CCN(Cc3ccccc3)CC2)C(=O)N(c2cccc(C(=N)N)c2)C1 (centres undefined)", "True"],
  ["CC1CN(c2ccc(C(=N)N)cc2)C(=O)N(C2CCN(Cc3ccccc3)CC2)C1 (centres undefined)", "False"],
  ["N=C(N)c1cccc(N2CC(NS(=O)(=O)c3ccccc3)CN(CC3CCN(Cc4ccccc4)CC3)C2=O)c1 (centres undefined)", "True"]
]}
